- assay.name: protein stability index of a GFP-peptide fusion (yeast GPS) (PSI 1-4); higher = more stable; sorted into four equal gates, so the index is relative within each strain
- measurement.context: doa10∆
Each entry falls in a class defined on protein stability index; the bands are A: < 2; B: ≥ 2 and < 3; C: ≥ 3

RVIDDNNRRRSRKRGGE [SIR3] | C

Classify this sequence: HGYFLQDKEKIDNLKDT [ITC1]
C

Kindly identify the class of EAVDDVFQAKMMDMLKQ [RPN11] .
B

* * *

- assay.name: protein stability index of a GFP-peptide fusion (yeast GPS) (PSI 1-4); higher = more stable; sorted into four equal gates, so the index is relative within each strain
- measurement.context: doa10∆
I'd appreciate it if you could label each record using protein stability index and these ranges: bin 0 (below 2), bin 1 (2 to below 3), bin 2 (3 or more)

Record excerpt, results attached:
EFEIPVSFNGFKLPKKF [BRR2] | bin 1
LAASEIGISIVGRFSTI [ECM29] | bin 1
NGQRSNSIRAREVENSV [SMC1] | bin 2
KTLNLFKQIKSADCELL [RPO31] | bin 0
GKYTLGYKSTVKSLRQG [RPL30] | bin 1

Categorize the following entry: EFNFTNLQAKPLVGKPK [YAR002W/NUP60]
bin 1

The entry to classify is MNMFGGGMGGGMGGGMP [SRP54] ; which class holds it?
bin 0
